The reported numbers originate from patent US11124523B2.

testedOn: human μ-subtype opioid receptor (hMOR) (Homo sapiens (Human), UniProt P35372)
procedureText: MOR cAMP agonist activity test
Type: cell-based
measurementSetup: maximum effect of enkephalin DAMGO was 100%
measurementType: Emax (%)
Only the number, expressed in %, is required.

Fc1ccc([C@]2(CCNCc3cccc(Cl)c3)CCO[C@]3(CCOC3)C2)nc1 [(+)-16]
91.7
Cc1cccc(CNCC[C@@]2(c3ccccn3)CCO[C@]3(CCOC3)C2)c1 [(+)-9]
88.9
Fc1cc(Cl)cc(CNCC[C@@]2(c3ccccn3)CCO[C@]3(CCOC3)C2)c1 [(+)-18]
87.7
c1ccc([C@]2(CCN[C@H]3CCc4ccccc43)CCO[C@]3(CCOC3)C2)nc1 [(+)-25]
90
Clc1cc(Cl)cc(CNCC[C@@]2(c3ccccn3)CCO[C@]3(CCOC3)C2)c1 [(+)-21]
92.3

We now examine a further molecule.
Which Emax is listed for c1ccc([C@]2(CCNCc3scc4c3COC4)CCO[C@]3(CCOC3)C2)nc1 [(+)-7] ?
90.4
